target-of-assay: hERG channel (Homo sapiens (Human))
Sequence (Q12809 whole entry): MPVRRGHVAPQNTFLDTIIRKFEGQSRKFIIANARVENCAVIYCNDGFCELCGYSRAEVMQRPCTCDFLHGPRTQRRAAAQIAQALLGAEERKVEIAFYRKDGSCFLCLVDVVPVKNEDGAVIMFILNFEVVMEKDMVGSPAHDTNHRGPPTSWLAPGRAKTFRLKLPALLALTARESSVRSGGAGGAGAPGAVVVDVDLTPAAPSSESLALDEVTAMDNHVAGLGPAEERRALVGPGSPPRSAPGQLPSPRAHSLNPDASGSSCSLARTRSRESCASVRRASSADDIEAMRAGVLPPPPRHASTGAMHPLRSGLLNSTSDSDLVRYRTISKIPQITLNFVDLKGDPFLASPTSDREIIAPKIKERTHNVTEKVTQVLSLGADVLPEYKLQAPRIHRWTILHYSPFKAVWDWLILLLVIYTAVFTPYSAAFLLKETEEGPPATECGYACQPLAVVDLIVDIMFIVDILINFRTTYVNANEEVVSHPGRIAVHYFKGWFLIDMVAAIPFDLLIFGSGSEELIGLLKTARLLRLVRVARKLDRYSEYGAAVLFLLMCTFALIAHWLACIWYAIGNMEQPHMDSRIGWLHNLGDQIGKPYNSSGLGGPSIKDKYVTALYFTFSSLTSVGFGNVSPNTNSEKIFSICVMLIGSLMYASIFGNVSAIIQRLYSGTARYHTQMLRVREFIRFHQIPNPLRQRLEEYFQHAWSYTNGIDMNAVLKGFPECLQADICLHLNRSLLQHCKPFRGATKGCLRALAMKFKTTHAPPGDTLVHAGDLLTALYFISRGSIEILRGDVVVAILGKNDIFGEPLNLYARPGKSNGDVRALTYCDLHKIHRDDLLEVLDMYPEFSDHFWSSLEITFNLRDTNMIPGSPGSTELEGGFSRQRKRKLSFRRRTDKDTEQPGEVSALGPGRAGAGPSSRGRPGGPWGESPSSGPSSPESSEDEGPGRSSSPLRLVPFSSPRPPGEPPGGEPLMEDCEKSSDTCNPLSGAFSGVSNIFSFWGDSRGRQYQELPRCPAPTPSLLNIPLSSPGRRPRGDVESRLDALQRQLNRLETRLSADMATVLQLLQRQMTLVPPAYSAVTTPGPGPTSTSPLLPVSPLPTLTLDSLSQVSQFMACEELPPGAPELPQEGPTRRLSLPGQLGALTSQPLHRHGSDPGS
assay-details: hERG channel inhibition assay (patch-clamp, CHOhERG cells)
Format: cell-based
pIC50: −log10 of the molar value.
Recorded pIC50 values for a group of compounds are listed next.

Example entries and their recorded answers appear below.
chemical-structure	pIC50
Cn1nc2cccc3c2c1CCCNC(=O)[C@@H]1C[C@@H](CN1c1ncnc2c1cnn2-c1ccc(F)cc1F)Oc1ccnc-3c1	< 5.00
CN1CCCc2c3c(cccc3nn2C)-c2ccnc(n2)O[C@H]2C[C@@H](C1=O)N(c1ncnc3c1cnn3-c1ccc(F)cc1F)C2	< 4.70
CN1CCCc2c3c(cccc3nn2C)-c2cccc(n2)O[C@H]2C[C@@H](C1=O)N(c1ncnc3c1cnn3-c1ccc(F)cc1F)C2	< 4.70
COc1cc(F)ccc1-n1ncc2c(N3C[C@@H]4C[C@H]3C(=O)N(C)CCCc3c5c(cccc5nn3C)-c3ccnc(n3)N4)ncnc21	< 4.70

For reference, reported pIC50 for COc1cc(F)ccc1-n1ncc2c(N3C[C@@H]4C[C@H]3C(=O)N(CCCN3CCOCC3)CCCc3c5c(cccc5nn3C)-c3cccc(n3)N4)ncnc21 stands at < 4.70

---

human stimulator of interferon genes (STING) (139-379) (Homo sapiens (Human)) data, read-out pIC50
Remember the convention: pIC50 equals -log10 of concentration in molar.

chemical-structure	target-of-assay	pIC50
COCCN1CCCc2c3c(cccc3nn2C)-c2cccc(c2)O[C@H]2C[C@@H](C1=O)N(c1ncnc3c1cnn3-c1ccc(F)cc1F)C2	human stimulator of interferon genes (STING) (139-379) (Homo sapiens (Human))	8.70

For reference, reported pIC50 for Cn1nc2cccc3c2c1CCCN(CC1CC1)C(=O)[C@@H]1C[C@@H](CN1c1ncnc2c1cnn2-c1ccc(F)cc1F)Oc1nccc-3n1 stands at 7.88

For reference, reported pIC50 for CN1CCCc2c3c(cccc3nn2C)-c2cccc(n2)N[C@H]2C[C@@H](C1=O)N(c1ncnc3c1cnn3-c1ccc(F)cc1F)C2 stands at 9.22

---

Tested on: STING (IFN-β in hPBMC)
assay-details: hPBMC cytokine functional assay (IFN-β decrease after Baculovirus stimulation)
Assay type: cell-based
condition-notes: Homo sapiens, Baculovirus MOI 40, 24 hours, read-out: hPBMC_IC50
measurement-type: log10 IC50 (log10 of the value in nM)
Units before log transform: nM; reported quantity: IC50; transform: log10.

chemical-structure	target-of-assay	assay-result
CN1CCCc2c3c(cccc3nn2C)-c2ccnc(n2)N[C@H]2C[C@@H](C1=O)N(c1ncnc3c1cnn3-c1ccc(F)cc1F)C2	STING (IFN-β in hPBMC)	2.62

For reference, reported log10 IC50 for COCCCN1CCCc2c3c(cccc3nn2C)-c2cccc(c2)O[C@H]2C[C@@H](C1=O)N(c1ncnc3c1cnn3-c1ccc(F)cc1F)C2 stands at 1.36

For reference, reported log10 IC50 for COc1cc(F)ccc1-n1ncc2c(N3C[C@@H]4C[C@H]3C(=O)N(C)CCCc3c5c(cccc5nn3C)-c3ccnc(n3)N4)ncnc21 stands at 2.77

---

Recorded pIC50 values for a group of compounds are listed next.
target-of-assay: human stimulator of interferon genes (STING) (139-379) (Homo sapiens (Human), UniProt Q86WV6)
Sequence (Q86WV6 139-379): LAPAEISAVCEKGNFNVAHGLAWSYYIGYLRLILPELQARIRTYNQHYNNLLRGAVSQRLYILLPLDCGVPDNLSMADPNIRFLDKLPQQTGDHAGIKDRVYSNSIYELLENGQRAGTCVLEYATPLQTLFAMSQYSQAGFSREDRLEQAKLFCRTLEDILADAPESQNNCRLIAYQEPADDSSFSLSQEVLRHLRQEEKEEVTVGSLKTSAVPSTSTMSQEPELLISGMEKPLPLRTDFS
Remember the convention: pIC50 equals -log10 of concentration in molar.

Example entries and their recorded answers appear below.
chemical-structure	pIC50
CN1CCN(CCCN2CCCc3c4c(cccc4nn3C)-c3cccc(c3)O[C@H]3C[C@@H](C2=O)N(c2ncnc4c2cnn4-c2ccc(F)cc2F)C3)CC1	8.49
CN1CCCc2c3c(cccc3nn2C)-c2ccnc(n2)N[C@H]2C[C@@H](C1=O)N(c1nccn3c(-c4ccc(F)cc4F)ncc13)C2	8.42

Note: attention shifts to another entry.
For reference, reported pIC50 for Cn1nc2cccc3c2c1CCCN(CCCN1CC2(COC2)C1)C(=O)[C@@H]1C[C@@H](CN1c1ncnc2c1cnn2-c1ccc(F)cc1F)Oc1cccc-3c1 stands at 8.14
